The measurements presented in this section are drawn from patent US20220125891A1.

# Assay system: T1, full-length human Regnase-1 with a FLAG tag on the N-terminal side and a biotin ligase BirA recognition … (human, UniProt Q5D1E8 1-599, biotinylated where required ; Biotinylated at the BirA recognition sequence where required. That sequence is not in the letters.)
# T1 construct: Expressed in Expi293 cells, purified on FLAG M2 agarose and by gel filtration; also called full-length Regnase-1; human full-length Regnase-1
# T1 sequence: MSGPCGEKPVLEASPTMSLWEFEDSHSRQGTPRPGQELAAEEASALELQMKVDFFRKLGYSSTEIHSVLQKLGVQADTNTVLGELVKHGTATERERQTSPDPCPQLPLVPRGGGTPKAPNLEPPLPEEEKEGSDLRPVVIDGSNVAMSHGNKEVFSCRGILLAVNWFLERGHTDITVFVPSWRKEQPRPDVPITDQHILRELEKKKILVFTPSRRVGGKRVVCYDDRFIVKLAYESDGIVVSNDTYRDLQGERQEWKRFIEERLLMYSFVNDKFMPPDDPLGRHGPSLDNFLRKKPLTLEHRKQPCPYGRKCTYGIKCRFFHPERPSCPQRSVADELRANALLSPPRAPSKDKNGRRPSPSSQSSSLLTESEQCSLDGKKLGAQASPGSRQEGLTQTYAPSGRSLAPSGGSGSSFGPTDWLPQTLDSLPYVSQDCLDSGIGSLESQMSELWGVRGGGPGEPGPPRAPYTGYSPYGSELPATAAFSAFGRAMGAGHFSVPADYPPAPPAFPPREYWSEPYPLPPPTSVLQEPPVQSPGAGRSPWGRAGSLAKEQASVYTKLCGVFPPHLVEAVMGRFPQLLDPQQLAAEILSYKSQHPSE
# Assay procedure: affinity selection-MS (SEC, LC/MS), 1 µM each
Positions of bridges follow the written chain, without caps; N, C: chain ends. Non-standard residues stand in square brackets, D forms with d. No end group written: not given here. NMeA = CN[C@@H](C)C(=O)O; dNMeA = CN[C@H](C)C(=O)O
Measurement label: AS-MS ratio(%)
Write the value in % as a bare number.

{"Binder": "[NMeA]DIWFDYWDYD (lactam N-11) [PP18]", "Experimental value": 71.6}
{"Binder": "[NMeA]NFSNSWYNIWD (lactam N-12) [PP16]", "Experimental value": 17.9}
{"Binder": "[NMeA]NFNSAYYRAIWD (lactam N-13) [PP7]", "Experimental value": 15.8}
{"Binder": "[NMeA]DIWFDYWDWD (lactam N-11) [PP17]", "Experimental value": 67.8}
{"Binder": "[dNMeA]TYGHSSWYKIWD (lactam N-13) [PP9]", "Experimental value": 14.8}
{"Binder": "[NMeA]KFAQFRWIYPD (lactam N-12) [PP11]", "Experimental value": 5.1}

Query [NMeA]HSNAWYNIWD (lactam N-11) [PP5] yields AS-MS ratio(%) of 20.8

Query [NMeA]RFGVWSWIYPD (lactam N-12) [PP14] yields AS-MS ratio(%) of 4.2

Query [NMeA]WIWDFWNED (lactam N-10) [PP24] yields AS-MS ratio(%) of 51.1

Query [NMeA]RYAVYQWIYPD (lactam N-12) [PP12] yields AS-MS ratio(%) of 21

Query [NMeA]GYANSWYNIWD (lactam N-12) [PP2] yields AS-MS ratio(%) of 14.2

Query [dNMeA]SKYWNSWYNIWD (lactam N-13) [PP8] yields AS-MS ratio(%) of 6.2

Query [dNMeA]KHASAWYRIWD (lactam N-12) [PP3] yields AS-MS ratio(%) of 1.2

Query [NMeA]NSWYRIWGLD (lactam N-11) [PP22] yields AS-MS ratio(%) of 14.5

Query [NMeA]KFWIHHSFED (lactam N-11) [PP20] yields AS-MS ratio(%) of 85

Query [NMeA]YIWDFFGDLD (lactam N-11) [PP4] yields AS-MS ratio(%) of 37.5

Query [dNMeA]EDTPEDDHD (lactam N-10) [PP25] yields AS-MS ratio(%) of 6.9
